Recorded measurements of relative viability, one per entry
System: EPLC-272H
Assay: relative viability (nuclei count vs DMSO), 5 days (fraction); higher = more cells survive
Conditions: first compound 158.11 µM
Please reply with the number alone, leaving off any unit.

Please review the entries below; each comes with its answer.
molecule	relative viability
O=C(O)CCCCC(CCSCc1ccccc1)SCc1ccccc1 (stereo not drawn) [CPI-613] + CC1(C)CCC(c2ccc(Cl)cc2)=C(CN2CCN(c3ccc(C(=O)NS(=O)(=O)c4ccc(N[C@H](CCN5CCOCC5)CSc5ccccc5)c(S(=O)(=O)C(F)(F)F)c4)cc3)CC2)C1 [Navitoclax] (partner 0.5 µM)	0.86
O=C(O)CCCCC(CCSCc1ccccc1)SCc1ccccc1 (stereo not drawn) [CPI-613] + Cc1nc(NC(=O)N2CCC[C@H]2C(N)=O)sc1-c1ccnc(C(C)(C)C(F)(F)F)c1 [Alpelisib] (partner 2 µM)	0.923
O=C(O)CCCCC(CCSCc1ccccc1)SCc1ccccc1 (stereo not drawn) [CPI-613] + CC(=O)c1c(C)c2cnc(Nc3ccc(N4CCNCC4)cn3)nc2n(C2CCCC2)c1=O [Palbociclib] (partner 0.5 µM)	0.316
O=C(O)CCCCC(CCSCc1ccccc1)SCc1ccccc1 (stereo not drawn) [CPI-613] + Nc1ncn([C@H]2C[C@H](O)[C@@H](CO)O2)c(=O)n1 [Decitabine] (partner 2 µM)	0.343
O=C(O)CCCCC(CCSCc1ccccc1)SCc1ccccc1 (stereo not drawn) [CPI-613] + Cc1cc(Nc2cc(N3CCN(C)CC3)nc(Sc3ccc(NC(=O)C4CC4)cc3)n2)n[nH]1 [Tozasertib] (partner 0.1 µM)	0.0813
O=C(O)CCCCC(CCSCc1ccccc1)SCc1ccccc1 (stereo not drawn) [CPI-613] + CC(=O)Nc1cccc(-n2c(=O)n(C3CC3)c(=O)c3c(Nc4ccc(I)cc4F)n(C)c(=O)c(C)c32)c1 [Trametinib] (partner 0.02 µM)	0.222

[Q] Which relative viability is listed for O=C(O)CCCCC(CCSCc1ccccc1)SCc1ccccc1 (stereo not drawn) [CPI-613] + N=C(N)NC(=N)NCCc1ccccc1 [Phenformin] (partner 250 µM) ?
[A] 0.279

[Q] Which relative viability is listed for O=C(O)CCCCC(CCSCc1ccccc1)SCc1ccccc1 (stereo not drawn) [CPI-613] + CCNC(=O)c1noc(-c2cc(C(C)C)c(O)cc2O)c1-c1ccc(CN2CCOCC2)cc1 [Luminespib] (partner 0.01 µM) ?
[A] 0.0624

====

Recorded measurements of relative viability, one per entry
Test system: NCI-H2126
Assay: relative viability (nuclei count vs DMSO), 5 days (fraction); higher = more cells survive
Conditions: first compound 0.05 µM
Please reply with the number alone, leaving off any unit.

compound	relative viability
Nc1ccn([C@@H]2O[C@H](CO)[C@@H](O)[C@@H]2O)c(=O)n1 [Cytarabine] + Cc1nc(Nc2ncc(C(=O)Nc3c(C)cccc3Cl)s2)cc(N2CCN(CCO)CC2)n1 [Dasatinib] (partner 0.075 µM)	0.429

[Q] Which relative viability is listed for COc1cc2nccc(Oc3ccc(NC(=O)Nc4cc(C)on4)c(Cl)c3)c2cc1OC [Tivozanib] + CC1(C)CCC(c2ccc(Cl)cc2)=C(CN2CCN(c3ccc(C(=O)NS(=O)(=O)c4ccc(N[C@H](CCN5CCOCC5)CSc5ccccc5)c(S(=O)(=O)C(F)(F)F)c4)cc3)CC2)C1 [Navitoclax] (partner 0.5 µM) ?
[A] 0.963

[Q] Which relative viability is listed for Nc1ccn([C@@H]2O[C@H](CO)[C@@H](O)[C@@H]2O)c(=O)n1 [Cytarabine] + C[C@]1(O)C[C@@H](c2nc(-c3ccc4ccc(-c5ccccc5)nc4c3)c3c(N)nccn32)C1 [Linsitinib] (partner 1 µM) ?
[A] 0.647

[Q] Which relative viability is listed for COc1cc2nccc(Oc3ccc(NC(=O)Nc4cc(C)on4)c(Cl)c3)c2cc1OC [Tivozanib] + C[C@@H](Oc1cc(-c2cnn(C3CCNCC3)c2)cnc1N)c1c(Cl)ccc(F)c1Cl [Crizotinib] (partner 1 µM) ?
[A] 1.03

====

System: NCI-H1915
Test: relative viability (nuclei count vs DMSO), 5 days (fraction); higher = more cells survive
Details: first compound 0.02 µM
readoutName: relative viability

molecule	relative viability
CC(=O)O[C@@]12CO[C@@H]1C[C@H](O)[C@@]1(C)C(=O)[C@H](O)C3=C(C)[C@@H](OC(=O)[C@H](O)[C@@H](NC(=O)OC(C)(C)C)c4ccccc4)C[C@@](O)([C@@H](OC(=O)c4ccccc4)[C@H]21)C3(C)C [Docetaxel] + CC(C)C[C@H](NC(=O)[C@H](Cc1ccccc1)NC(=O)c1cnccn1)B(O)O [Bortezomib] (partner 0.002 µM)	0.116
CC(=O)O[C@@]12CO[C@@H]1C[C@H](O)[C@@]1(C)C(=O)[C@H](O)C3=C(C)[C@@H](OC(=O)[C@H](O)[C@@H](NC(=O)OC(C)(C)C)c4ccccc4)C[C@@](O)([C@@H](OC(=O)c4ccccc4)[C@H]21)C3(C)C [Docetaxel] + CC(=O)c1c(C)c2cnc(Nc3ccc(N4CCNCC4)cn3)nc2n(C2CCCC2)c1=O [Palbociclib] (partner 0.5 µM)	0.102

[Q] Give relative viability (NCI-H1915) of the following molecule: CC(=O)O[C@@]12CO[C@@H]1C[C@H](O)[C@@]1(C)C(=O)[C@H](O)C3=C(C)[C@@H](OC(=O)[C@H](O)[C@@H](NC(=O)OC(C)(C)C)c4ccccc4)C[C@@](O)([C@@H](OC(=O)c4ccccc4)[C@H]21)C3(C)C [Docetaxel] + O=C(CCCCCCC(=O)Nc1ccccc1)NO [Vorinostat] (partner 1 µM)
[A] 0.0863

[Q] Give relative viability (NCI-H1915) of the following molecule: CC(=O)O[C@@]12CO[C@@H]1C[C@H](O)[C@@]1(C)C(=O)[C@H](O)C3=C(C)[C@@H](OC(=O)[C@H](O)[C@@H](NC(=O)OC(C)(C)C)c4ccccc4)C[C@@](O)([C@@H](OC(=O)c4ccccc4)[C@H]21)C3(C)C [Docetaxel] + COc1cc2c(Oc3ccc(NC(=O)C4(C(=O)Nc5ccc(F)cc5)CC4)cc3F)ccnc2cc1OCCCN1CCOCC1 [Foretinib] (partner 0.25 µM)
[A] 0.179

[Q] Give relative viability (NCI-H1915) of the following molecule: CC(=O)O[C@@]12CO[C@@H]1C[C@H](O)[C@@]1(C)C(=O)[C@H](O)C3=C(C)[C@@H](OC(=O)[C@H](O)[C@@H](NC(=O)OC(C)(C)C)c4ccccc4)C[C@@](O)([C@@H](OC(=O)c4ccccc4)[C@H]21)C3(C)C [Docetaxel] + CC(=O)Nc1cccc(-n2c(=O)n(C3CC3)c(=O)c3c(Nc4ccc(I)cc4F)n(C)c(=O)c(C)c32)c1 [Trametinib] (partner 0.02 µM)
[A] 0.0803

[Q] Give relative viability (NCI-H1915) of the following molecule: CC(=O)O[C@@]12CO[C@@H]1C[C@H](O)[C@@]1(C)C(=O)[C@H](O)C3=C(C)[C@@H](OC(=O)[C@H](O)[C@@H](NC(=O)OC(C)(C)C)c4ccccc4)C[C@@](O)([C@@H](OC(=O)c4ccccc4)[C@H]21)C3(C)C [Docetaxel] + CS(=O)(=O)CCNCc1ccc(-c2ccc3ncnc(Nc4ccc(OCc5cccc(F)c5)c(Cl)c4)c3c2)o1 [Lapatinib] (partner 2 µM)
[A] 0.118

====

Recorded measurements of relative viability, one per entry
Test system: EKVX
Assay: relative viability (nuclei count vs DMSO), 5 days (fraction); higher = more cells survive
Settings: first compound 0.253 µM
Please reply with the number alone, leaving off any unit.

Please review the entries below; each comes with its answer.
compound	relative viability
Cc1cnc(-c2cnc(NCCNc3ccc(C#N)cn3)nc2-c2ccc(Cl)cc2Cl)[nH]1 + Cc1nc(Nc2ncc(C(=O)Nc3c(C)cccc3Cl)s2)cc(N2CCN(CCO)CC2)n1 [Dasatinib] (partner 0.075 µM)	0.518
Cc1cnc(-c2cnc(NCCNc3ccc(C#N)cn3)nc2-c2ccc(Cl)cc2Cl)[nH]1 + O=C(CCCCCCC(=O)Nc1ccccc1)NO [Vorinostat] (partner 1 µM)	0.529
Cc1cnc(-c2cnc(NCCNc3ccc(C#N)cn3)nc2-c2ccc(Cl)cc2Cl)[nH]1 + CC(=O)Nc1cccc(-n2c(=O)n(C3CC3)c(=O)c3c(Nc4ccc(I)cc4F)n(C)c(=O)c(C)c32)c1 [Trametinib] (partner 0.02 µM)	0.328
O=c1[nH]c2ccccc2n1C1CCN(CCCC(c2ccc(F)cc2)c2ccc(F)cc2)CC1 [Pimozide] + Cc1nc(NC(=O)N2CCC[C@H]2C(N)=O)sc1-c1ccnc(C(C)(C)C(F)(F)F)c1 [Alpelisib] (partner 2 µM)	0.806
O=c1[nH]c2ccccc2n1C1CCN(CCCC(c2ccc(F)cc2)c2ccc(F)cc2)CC1 [Pimozide] + Cc1cc(Nc2cc(N3CCN(C)CC3)nc(Sc3ccc(NC(=O)C4CC4)cc3)n2)n[nH]1 [Tozasertib] (partner 0.1 µM)	0.321
O=c1[nH]c2ccccc2n1C1CCN(CCCC(c2ccc(F)cc2)c2ccc(F)cc2)CC1 [Pimozide] + Nc1nc2[nH]cc(CCc3ccc(C(=O)N[C@@H](CCC(=O)O)C(=O)O)cc3)c2c(=O)[nH]1 [Pemetrexed] (partner 0.2 µM)	0.336

[Q] Which relative viability is listed for O=c1[nH]c2ccccc2n1C1CCN(CCCC(c2ccc(F)cc2)c2ccc(F)cc2)CC1 [Pimozide] + CCNC(=O)c1noc(-c2cc(C(C)C)c(O)cc2O)c1-c1ccc(CN2CCOCC2)cc1 [Luminespib] (partner 0.01 µM) ?
[A] 0.86

[Q] Which relative viability is listed for Cc1cnc(-c2cnc(NCCNc3ccc(C#N)cn3)nc2-c2ccc(Cl)cc2Cl)[nH]1 + CC1(C)CCC(c2ccc(Cl)cc2)=C(CN2CCN(c3ccc(C(=O)NS(=O)(=O)c4ccc(N[C@H](CCN5CCOCC5)CSc5ccccc5)c(S(=O)(=O)C(F)(F)F)c4)cc3)CC2)C1 [Navitoclax] (partner 0.5 µM) ?
[A] 0.844

[Q] Which relative viability is listed for Cc1cnc(-c2cnc(NCCNc3ccc(C#N)cn3)nc2-c2ccc(Cl)cc2Cl)[nH]1 + Nc1ncn([C@H]2C[C@H](O)[C@@H](CO)O2)c(=O)n1 [Decitabine] (partner 2 µM) ?
[A] 0.315
